- studyTarget: T1, human DLL3 (ACRO, DLL3-H52H4) (human, UniProt Q9NYJ7 27-492)
- T1 construct: Bought
- T1 sequence: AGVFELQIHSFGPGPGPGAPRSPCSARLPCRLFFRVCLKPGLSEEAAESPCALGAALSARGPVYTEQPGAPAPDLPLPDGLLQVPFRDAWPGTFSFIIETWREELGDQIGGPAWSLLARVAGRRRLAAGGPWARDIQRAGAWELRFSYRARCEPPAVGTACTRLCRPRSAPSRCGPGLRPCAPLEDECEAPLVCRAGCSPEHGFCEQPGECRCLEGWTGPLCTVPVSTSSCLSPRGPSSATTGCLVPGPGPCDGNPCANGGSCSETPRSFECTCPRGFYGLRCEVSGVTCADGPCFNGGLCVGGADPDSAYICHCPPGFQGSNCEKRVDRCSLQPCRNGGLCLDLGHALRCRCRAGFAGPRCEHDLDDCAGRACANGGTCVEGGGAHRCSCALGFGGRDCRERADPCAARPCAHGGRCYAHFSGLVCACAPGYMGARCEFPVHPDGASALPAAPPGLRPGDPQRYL
- protocolNotes: SPR Biacore 8K, Ab captured on Protein A
Give Kd for every item shown.
The reply should contain only the number, in nM.

Indicate the recorded Kd value for this binder: hu6L3H1 (antibody, human IgG1, kappa, V domains shown) VH: EVQLVQSGAEVKKPGASVKVSCKASGYTFTDYYMNWVRQAPGQRLEWMGIINPYSGVTIYNHKFKGRVTITVDKSASTAYMELSSLRSEDTAVYYCARQDSLLDYAMDYWGQGTTVTVSS VL: DIQMTQSPSSLSASVGDRVTITCHASQGISGNMGWLQQKPGKSFKGLIYHGANLEDGVPSRFSGSGSGADYTLTISSLQPEDFATYYCVQYAQFPYTFGGGTKVEIKR
2.02

Kindly indicate its recorded Kd. Item: hu6L4H11 (antibody, human IgG1, kappa, V domains shown) VH: EVQLVQSGSELKKPGASVKVSCKASGYTFTDYYMNWVKQAPGQGLEWMGIINPYSGVTIYNHKFKGRFVLSVDKSSNTAYLQISSLKAEDTAVYYCARQDSLLDYAMDYWGQGTTVTVSS VL: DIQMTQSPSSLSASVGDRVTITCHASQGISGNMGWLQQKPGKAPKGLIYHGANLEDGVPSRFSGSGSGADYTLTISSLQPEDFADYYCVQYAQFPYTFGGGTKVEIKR
0.314

Output measured Kd for this item: hu30L4H11 (antibody, human IgG1, kappa, V domains shown) VH: EVRLVQFGAVVKKPGASVKVSCKASGYTFTDYYMNWVRQAPGQSLEWMGIINPYTGDTSYNQKFRGRVTLTVDKSSSTAYMELSSLTSEDTAVYYCARYHYGPHLEGYFDVWGQGTTVTVSS VL: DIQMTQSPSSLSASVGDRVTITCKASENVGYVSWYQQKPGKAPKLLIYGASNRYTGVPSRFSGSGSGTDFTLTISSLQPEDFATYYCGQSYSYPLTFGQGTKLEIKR
2.84
